Biological target: T1, HCoV-NL63-N protein (HCoV-NL63, UniProt Q6Q1R8 1-377)
T1 construct: also called NL63-CoV N
T1 sequence: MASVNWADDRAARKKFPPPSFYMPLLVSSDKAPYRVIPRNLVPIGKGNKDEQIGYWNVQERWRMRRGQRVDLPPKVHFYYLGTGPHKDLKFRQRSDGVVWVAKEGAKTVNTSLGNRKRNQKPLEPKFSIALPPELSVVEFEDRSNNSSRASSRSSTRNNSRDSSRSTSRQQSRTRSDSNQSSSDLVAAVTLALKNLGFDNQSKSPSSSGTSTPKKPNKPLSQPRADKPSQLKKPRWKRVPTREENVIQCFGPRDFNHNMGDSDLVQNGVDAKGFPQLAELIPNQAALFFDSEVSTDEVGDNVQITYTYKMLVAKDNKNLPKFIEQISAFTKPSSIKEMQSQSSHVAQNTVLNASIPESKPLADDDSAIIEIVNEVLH
Assay: ELISA, IgG1 on recombinant N protein
ENDPOINT LABEL: EC50

[[record]]
binder = "antibody #48 (antibody, V domains shown, also called C48) VH: EVQLVESGGGLVQPGGSLRLSCAASGFTISNFGIHWVRQAPGKGLEWVAGIWPYGGYTFYADSVKGRFTISADTSKNTAYLQMNSLRAEDTAVYYCARFDSYSYSGYMDYWGQGTLVTVSS VL: DIQMTQSPSSLSASVGDRVTITCSGSSSNIGDNNVYWYQQKPGKAPKLLIFGPAYLYSGVPSRFSGSGSGTDFTLTISSLQPEDFATYYCAAGYSDNNGITFGQGTKVEIKR"
endpoint_label = "EC50"
endpoint_value = "> 2 µg/mL"

